Origin of values: the supplement of paper PMC13380429

Tested on: Vero E6 infected with SARS-CoV-2
Test: morphology score (similarity to uninfected cells); higher = more like uninfected cells
Conditions: 24 h
Each entry gets false if its morphology score stays under 0.1, and true if its morphology score is 0.1 or above.

{"COMPOUND": "O=C(O)C1=CCCN(CCOC(c2ccc(C(F)(F)F)cc2)c2ccc(C(F)(F)F)cc2)C1 (10 µM)", "LABEL VALUE": "false"}
{"COMPOUND": "CCOC(=O)[C@@H](N)Cc1ccc(-c2cc(O[C@H](c3ccc(Cl)cc3-n3ccc(C)n3)C(F)(F)F)nc(N)n2)cc1 [telotristat-ethyl] (10 µM)", "LABEL VALUE": "true"}
{"COMPOUND": "CCC(C(=O)O)c1ccc(CC(C)C)cc1 (stereo not drawn) [butibufen] (10 µM)", "LABEL VALUE": "true"}
{"COMPOUND": "C[C@@H]1CN(Cc2ccc(F)cc2)CCN1C(=O)COc1ccc(Cl)cc1NC(N)=O (10 µM)", "LABEL VALUE": "false"}
{"COMPOUND": "CSc1ccc2c(c1)[C@H](N1CCN(C)CC1)Cc1ccccc1S2 (racemic) [metitepine] (0.833333 µM)", "LABEL VALUE": "false"}
{"COMPOUND": "Cc1ccc(S(=O)(=O)/C=C/C#N)cc1 (0.833333 µM)", "LABEL VALUE": "true"}
{"COMPOUND": "O=C(Cc1ccccc1)Nc1nc2ccc(Cl)cc2c2nc(-c3ccco3)nn12 (10 µM)", "LABEL VALUE": "false"}
{"COMPOUND": "Cc1cc(-c2ncc(CC(=O)Nc3ccc(-c4cnccn4)cn3)cc2C)ccn1 (10 µM)", "LABEL VALUE": "false"}
{"COMPOUND": "Cc1ccc(-c2ncc(Cl)cc2-c2ccc(S(C)(=O)=O)cc2)cn1 [etoricoxib] (10 µM)", "LABEL VALUE": "false"}
{"COMPOUND": "CCN1C[C@]2(OC(=O)c3ccccc3NC(C)=O)CC[C@H](OC)[C@@]34[C@@H]2C[C@@H]([C@@H]13)[C@@]1(O)C[C@H](OC)[C@H]2C[C@@H]4[C@]1(O)[C@H]2OC [lappaconite] (10 µM)", "LABEL VALUE": "false"}
{"COMPOUND": "NS(=O)(=O)c1ccc2c(c1)C1C=CCC1C(c1ccc(Br)cc1)N2 (stereo not drawn) (10 µM)", "LABEL VALUE": "false"}
{"COMPOUND": "C[C@H]1O[C@@H](O[C@H]2CC[C@@]3(C)[C@H](CC[C@@H]4[C@@H]3C[C@@H](O)[C@]3(C)[C@@H](C5=CC(=O)OC5)CC[C@]43O)C2)C[C@H](O)[C@@H]1O[C@H]1C[C@H](O)[C@H](O[C@H]2C[C@H](O)[C@H](O[C@@H]3O[C@H](CO)[C@@H](O)[C@H](O)[C@H]3O)[C@@H](C)O2)[C@@H](C)O1 [deslanoside] (0.833333 µM)", "LABEL VALUE": "false"}
{"COMPOUND": "COc1cccc(OC)c1OCCNC[C@H]1COc2ccccc2O1 (10 µM)", "LABEL VALUE": "true"}
{"COMPOUND": "COC(=O)c1sccc1S(=O)(=O)Nc1ccc(Nc2ccccc2)cc1OC (10 µM)", "LABEL VALUE": "true"}
{"COMPOUND": "COc1cc2c(cc1OC)CN(CCc1ccc(NC(=O)c3cc(OC)c(OC)cc3NC(=O)c3cnc4ccccc4c3)cc1)CC2 [tariquidar] (10 µM)", "LABEL VALUE": "false"}
{"COMPOUND": "CC(C)CC(NC(=O)OCC1c2ccccc2-c2ccccc21)C(=O)O (stereo in doubt) (10 µM)", "LABEL VALUE": "true"}
{"COMPOUND": "CCN1CCC[C@H]1CNC(=O)c1c(OC)ccc(Br)c1OC [remoxipride] (10 µM)", "LABEL VALUE": "true"}
{"COMPOUND": "CCN1C(C)(C)CC(Oc2ccc(C(=O)Nc3ccc(NC(=O)Nc4cc(C(C)(C)C)on4)cc3)nc2)CC1(C)C (10 µM)", "LABEL VALUE": "false"}
{"COMPOUND": "C[C@H](Cc1ccc(OCC(=O)O)cc1)NC[C@H](O)c1cccc(Cl)c1 (10 µM)", "LABEL VALUE": "false"}
{"COMPOUND": "Nc1nc(N)c2nc(-c3cccc(O)c3)cnc2n1 (10 µM)", "LABEL VALUE": "true"}
{"COMPOUND": "O=C(Cc1cccc(OC(F)(F)F)c1)Nc1ccc(CCCCc2nnc(NC(=O)Cc3ccccn3)s2)nn1 (10 µM)", "LABEL VALUE": "false"}
{"COMPOUND": "CN1C(C(=O)Nc2ccccn2)=C(O)c2ccccc2S1(=O)=O [piroxicam] (10 µM)", "LABEL VALUE": "true"}
